Please go through the items and note down their Emax.
Measured on: serotonin 5-HT2C receptor (VSV type isoform, stably expressed in CHO cells) (Homo sapiens, UniProt P28335, I156V/I160V/N158S)
Sequence (P28335 33-458 I156V/N158S/I160V limits assumed): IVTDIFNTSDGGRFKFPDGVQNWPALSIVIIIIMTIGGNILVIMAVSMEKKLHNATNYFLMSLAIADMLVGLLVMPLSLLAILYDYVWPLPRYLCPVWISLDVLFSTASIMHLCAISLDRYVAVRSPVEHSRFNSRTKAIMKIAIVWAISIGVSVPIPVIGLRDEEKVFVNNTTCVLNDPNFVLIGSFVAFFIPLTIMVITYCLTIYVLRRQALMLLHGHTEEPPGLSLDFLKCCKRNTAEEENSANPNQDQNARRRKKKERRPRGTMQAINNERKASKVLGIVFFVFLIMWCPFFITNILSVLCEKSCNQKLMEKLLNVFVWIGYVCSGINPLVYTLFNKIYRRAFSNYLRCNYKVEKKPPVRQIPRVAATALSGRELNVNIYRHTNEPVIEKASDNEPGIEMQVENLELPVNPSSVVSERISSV
Test summary: cell-based
Protocol conditions: read-out: ratio (%) relative to maximum response by 5-HT (10 μM)
Counter-ions that a name gives are not always drawn.
Please give a number only; it is taken to be in %.

Recorded Emax for CC(C)C(=O)N1CC2CNCCc3c(Cl)ccc1c32 (stereo not shown) [Example 35, hydrochloride] , please? 99

Recorded Emax for CC(C)N1C[C@H]2CNCCc3ccc(Cl)c1c32 [Example 18, hydrochloride] , please? 105

Recorded Emax for Cc1ccc2c3c1N(C)CC3CNCC2 (stereo not shown) [Example 10, hydrochloride] , please? 100

Recorded Emax for c1cc2c3c(c1)SCC3CNCC2 (stereo not shown) [Example 43, hydrochloride] , please? 107

Recorded Emax for CC(=O)N1CC2CNCCc3ccc(Cl)c1c32 (stereo not shown) [Example 21, hydrochloride] , please? 109

Recorded Emax for CC(=O)N1C[C@H]2CNCCc3ccc(Cl)c1c32 [Example 25, hydrochloride] , please? 96

Recorded Emax for CN1CC2CNCCc3c(Cl)cc(Cl)c1c32 (stereo not shown) [Example 7] , please? 97

Recorded Emax for Cn1cc2c3c(cccc31)CCNC2 [Example 3] , please? 106

Recorded Emax for c1ccc(CN2CC3CNCCc4cccc2c43)cc1 (stereo not shown) [Example 19, hydrochloride] , please? 96

Recorded Emax for Clc1ccc2c3c1N(C1CC1)C[C@@H]3CNCC2 [Example 30] , please? 94

Recorded Emax for O=S1(=O)CC2CNCCc3cccc1c32 (stereo not shown) [Example 42, hydrochloride] , please? 102

Recorded Emax for c1cc2c3c(c1)OCC3CNCC2 (stereo not shown) [Example 32, hydrochloride] , please? 97

Recorded Emax for CN1C[C@H]2CNCCc3ccc(Cl)c1c32 [Example 8, hydrochloride] , please? 105

Recorded Emax for CN1CC2CNCCc3c(Cl)ccc1c32 (stereo not shown) [Example 6, hydrochloride] , please? 98

Recorded Emax for CC(C)c1ccc2c3c1N(C)CC3CNCC2 (stereo not shown) [Example 40] , please? 93

Recorded Emax for Cc1ccc2c3c1N(C)C[C@@H]3CNCC2 [Example 11] , please? 102

Recorded Emax for CC(=O)N1CC2CNCCc3cccc1c32 (stereo not shown) [Example 20, hydrochloride] , please? 94

Recorded Emax for CC(C)N1CC2CNCCc3ccc(Cl)c1c32 (stereo not shown) [Example 16, hydrochloride] , please? 101

Recorded Emax for CC(=O)N1CC2CNCCc3c(Cl)ccc1c32 (stereo not shown) [Example 22, hydrochloride] , please? 105

Recorded Emax for c1cc2c3c(c1)NCC3CNCC2 (stereo not shown) [Example 2, dihydrochloride] , please? 107

Recorded Emax for CN1CC2CNCCc3cccc1c32 (stereo not shown) [Example 4, hydrochloride] , please? 100

Recorded Emax for O=C(c1ccccc1)N1CC2CNCCc3c(Cl)cc(Cl)c1c32 (stereo not shown) [Example 39, hydrochloride] , please? 93
